Recorded values, source ChEMBL document CHEMBL1135778.

Readings of IC50 for the listed compounds
experimental.system: 5-hydroxytryptamine receptor 1A (Rattus norvegicus)
Sequence (P19327 whole entry): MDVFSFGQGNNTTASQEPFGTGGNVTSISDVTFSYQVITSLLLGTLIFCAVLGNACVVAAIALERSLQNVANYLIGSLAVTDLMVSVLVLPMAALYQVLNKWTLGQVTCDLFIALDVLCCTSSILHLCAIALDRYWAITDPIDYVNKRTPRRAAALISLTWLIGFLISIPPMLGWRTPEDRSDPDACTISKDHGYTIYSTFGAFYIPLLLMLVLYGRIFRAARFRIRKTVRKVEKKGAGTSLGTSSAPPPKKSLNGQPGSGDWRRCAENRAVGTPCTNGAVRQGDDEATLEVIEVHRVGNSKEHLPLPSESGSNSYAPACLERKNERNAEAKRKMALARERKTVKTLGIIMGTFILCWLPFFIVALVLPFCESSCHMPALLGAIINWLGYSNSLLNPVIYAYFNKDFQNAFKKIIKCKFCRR
test.protocol: Inhibition of (+)-8-OH-DPAT stimulated [35S]GTP-gamma-S, binding to 5-hydroxytryptamine 1A receptor in hippocampal membranes

compound: OC(CCN1CCN(c2cccc3c2OCCO3)CC1)c1csc2ccc(F)cc12 (stereo unspecified)
unit: nM
IC50: 31.2
//
compound: OC(CCN1CCN(c2cccc3[nH]ccc23)CC1)c1csc2ccccc12 (stereo unspecified)
unit: nM
IC50: 31.2
//
compound: OC(CCN1CCN(c2cccc3[nH]ccc23)CC1)c1csc2ccc(F)cc12 (stereo unspecified)
unit: nM
IC50: 16.1
//
compound: OC(CCN1CCN(c2cccc3c2OCCCO3)CC1)c1csc2ccc(F)cc12 (stereo unspecified)
unit: nM
IC50: 360
//
compound: OC(CCN1CCN(c2cccc3c2OCCO3)CC1)c1csc2ccccc12 (stereo unspecified)
unit: nM
IC50: 56.2
//
compound: OC(CCN1CCN(c2cccc3cccnc23)CC1)c1csc2ccccc12 (stereo unspecified)
unit: nM
IC50: 18

----------
experimental.system: 5-hydroxytryptamine receptor 1A (Rattus norvegicus) (UniProt P19327)
test.protocol: Antagonist activity to stimulate binding of [35S]-GTP-gamma S binding to 5-hydroxytryptamine 1A receptor in isolated rat hippocampal membranes; further: test concentration or dose not given here
Type: functional, cell membranes
condition: Membrane, scale: (fM of GTP-gammaS bound)
Binary call on Max: T from 20 upward, F beneath that.

compound: CCCN(CCC)C1CCc2cccc(O)c2C1 (stereo not drawn)
experimental.system: 5-hydroxytryptamine receptor 1A (Rattus norvegicus) (UniProt P19327)
category.label: T

compound: OC(CCN1CCN(c2cccc3c2OCCO3)CC1)c1csc2ccc(F)cc12 (stereo not drawn)
experimental.system: 5-hydroxytryptamine receptor 1A (Rattus norvegicus) (UniProt P19327)
category.label: F

compound: OC(CCN1CCN(c2cccc3[nH]ccc23)CC1)c1csc2ccc(F)cc12 (stereo not drawn)
experimental.system: 5-hydroxytryptamine receptor 1A (Rattus norvegicus) (UniProt P19327)
category.label: F

compound: OC(CCN1CCN(c2cccc3cccnc23)CC1)c1csc2ccccc12 (stereo not drawn)
experimental.system: 5-hydroxytryptamine receptor 1A (Rattus norvegicus) (UniProt P19327)
category.label: F

compound: OC(CCN1CCN(c2cccc3cccnc23)CC1)c1csc2ccc(F)cc12 (stereo not drawn)
experimental.system: 5-hydroxytryptamine receptor 1A (Rattus norvegicus) (UniProt P19327)
category.label: T

compound: OC(CCN1CCN(c2cccc3c2OCCCO3)CC1)c1csc2ccc(F)cc12 (stereo not drawn)
experimental.system: 5-hydroxytryptamine receptor 1A (Rattus norvegicus) (UniProt P19327)
category.label: F

compound: OC(CCN1CCN(c2cccc3[nH]ccc23)CC1)c1csc2ccccc12 (stereo not drawn)
experimental.system: 5-hydroxytryptamine receptor 1A (Rattus norvegicus) (UniProt P19327)
category.label: F

compound: OC(CCN1CCN(c2cccc3c2OCCO3)CC1)c1csc2ccccc12 (stereo not drawn)
experimental.system: 5-hydroxytryptamine receptor 1A (Rattus norvegicus) (UniProt P19327)
category.label: F
